# target under test: TAAR1 (Mus musculus (Mouse))
# experiment: TAAR1 radioligand binding assay ([3H]-rac-2-(1,2,3,4-tetrahydro-1-naphthyl)-2-imidazoline, membranes of stably transfected HEK293 cells)
pKi: −log10 of the molar value.

| smiles repr | target under test | pKi |
| --- | --- | --- |
| CCN(Cc1cnc[nH]1)c1cccc(C(F)(F)F)n1 | TAAR1 (Mus musculus (Mouse)) | 8.05 |

###

# target under test: TAAR1 (Mus musculus (Mouse), UniProt Q923Y8)
# Sequence (Q923Y8 whole entry): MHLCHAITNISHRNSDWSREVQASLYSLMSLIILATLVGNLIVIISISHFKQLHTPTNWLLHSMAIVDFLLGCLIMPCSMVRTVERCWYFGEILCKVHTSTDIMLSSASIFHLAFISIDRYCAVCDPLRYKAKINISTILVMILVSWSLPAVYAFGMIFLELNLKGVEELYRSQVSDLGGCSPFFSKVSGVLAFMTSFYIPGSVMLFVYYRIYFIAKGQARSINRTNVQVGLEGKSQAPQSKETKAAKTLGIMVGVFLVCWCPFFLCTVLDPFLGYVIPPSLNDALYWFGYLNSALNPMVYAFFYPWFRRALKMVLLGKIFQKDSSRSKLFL
# experiment: TAAR1 radioligand binding assay ([3H]-rac-2-(1,2,3,4-tetrahydro-1-naphthyl)-2-imidazoline, membranes of stably transfected HEK293 cells)
# assay setup: read-out: Ki (μM) mouse; mouse TAAR1; radioligand [3H]-rac-2-(1,2,3,4-tetrahydro-1-naphthyl)-2-imidazoline at 60 nM; 4° C., 30 minutes
observed property: Ki (µM)

| smiles repr | observed property | readout unit | observed result |
| --- | --- | --- | --- |
| COc1cccc(N(C)Cc2cnc[nH]2)c1 | Ki | µM | 0.0089 |
| COc1c(F)ccc(N(Cc2cnc[nH]2)C(C)C)c1F | Ki | µM | 0.006 |
| CC(C)c1cccc(NCc2cnc[nH]2)c1 | Ki | µM | 0.002 |
| COc1cc(N(Cc2cnc[nH]2)C(C)C)ccc1Cl | Ki | µM | 0.005 |
| CN(Cc1cnc[nH]1)c1cccc(OC(F)F)c1 | Ki | µM | 0.0068 |
| CC(C)N(Cc1cnc[nH]1)c1ccc2ccccc2c1 | Ki | µM | 0.0082 |
| Clc1ccc(CN(Cc2cnc[nH]2)c2cccc(Cl)c2)cc1 | Ki | µM | 0.0059 |
| Clc1cc(NCc2cnc[nH]2)ccc1Br | Ki | µM | 0.002 |
| CCN(Cc1cnc[nH]1)c1cccc(Oc2ccccc2)c1 | Ki | µM | 0.0024 |
| CC(C)N(Cc1cnc[nH]1)c1ccc(Br)cc1 | Ki | µM | 0.004 |
| Clc1cccc(N(Cc2cnc[nH]2)Cc2ccccc2Cl)c1 | Ki | µM | 0.0039 |
| FC(F)(F)Oc1ccc(NCc2cnc[nH]2)cc1Cl | Ki | µM | 0.002 |
| CC(C)N(Cc1cnc[nH]1)c1cc(F)cc(F)c1 | Ki | µM | 0.003 |
| CN(Cc1cnc[nH]1)c1cccc(Oc2ccccc2)c1 | Ki | µM | 0.0036 |
| CN(Cc1cnc[nH]1)c1cc(Cl)cc(Cl)c1 | Ki | µM | 0.001 |
| CCN(Cc1cnc[nH]1)c1ccc(Br)c(F)c1 | Ki | µM | 0.002 |
| CCN(Cc1cnc[nH]1)c1ccc2ccccc2c1 | Ki | µM | 0.0012 |
| Cc1ccc(N(Cc2cnc[nH]2)C(C)C)cc1Cl | Ki | µM | 0.0023 |
| CC(C)N(Cc1cnc[nH]1)c1cccc(C(F)(F)F)c1 | Ki | µM | 0.0023 |
| CC(C)N(Cc1cnc[nH]1)c1ccc2c(c1)CCC2 | Ki | µM | 0.0055 |
| CC(C)N(Cc1cnc[nH]1)c1ccc(F)c(Br)c1 | Ki | µM | 0.0025 |
| CCN(Cc1cnc[nH]1)c1ccc(Cl)c(OC)c1 | Ki | µM | 0.002 |
| CC(C)N(Cc1cnc[nH]1)c1cccc(Oc2cccc(Cl)c2)c1 | Ki | µM | 0.005 |
| CC(C)N(Cc1cnc[nH]1)c1ccc(Br)c(Br)c1 | Ki | µM | 0.001 |
| CC(C)N(Cc1cnc[nH]1)c1ccc(Cl)c(C(F)(F)F)c1 | Ki | µM | 0.0045 |
| Clc1cccc(Oc2cccc(NCc3cnc[nH]3)c2)c1 | Ki | µM | 0.0028 |
| CCN(Cc1cnc[nH]1)c1nc(Cl)cc(Cl)n1 | Ki | µM | 0.004 |
| Brc1cccc(NCc2cnc[nH]2)c1 | Ki | µM | 0.001 |
| CC(C)N(Cc1cnc[nH]1)c1ccc(F)c(Cl)c1 | Ki | µM | 0.0015 |
| CC(C)N(Cc1cnc[nH]1)c1ccc(OC(F)(F)F)cc1 | Ki | µM | 0.0067 |
| CC(C)N(Cc1cnc[nH]1)c1cccc(OCc2ccccc2)c1 | Ki | µM | 0.0041 |
| CC(C)Oc1cccc(N(Cc2cnc[nH]2)C(C)C)c1 | Ki | µM | 0.0067 |
| CN(Cc1cnc[nH]1)c1ccc(Cl)c(Cl)c1 | Ki | µM | 0.002 |
| Brc1ccc(NCc2cnc[nH]2)cc1Br | Ki | µM | 0.004 |
| Clc1cccc(N(Cc2ccccc2)Cc2cnc[nH]2)c1 | Ki | µM | 0.0078 |
| CCN(Cc1cnc[nH]1)c1ccc(F)c(Cl)c1 | Ki | µM | 0.001 |
| CCN(Cc1cnc[nH]1)c1ccc(OC(F)(F)F)c(Cl)c1 | Ki | µM | 0.001 |
| Clc1cccc(CN(Cc2cnc[nH]2)c2cccc(Cl)c2)c1 | Ki | µM | 0.0077 |
| Fc1cc(F)cc(NCc2cnc[nH]2)c1 | Ki | µM | 0.006 |
| Fc1cc(NCc2cnc[nH]2)ccc1Br | Ki | µM | 0.0098 |
| CC(C)N(Cc1cnc[nH]1)c1cccc(COc2ccccc2)c1 | Ki | µM | 0.002 |
| CC(C)N(Cc1cnc[nH]1)c1cccc(Br)n1 | Ki | µM | 0.004 |

###

# target under test: TAAR1 (Mus musculus (Mouse), UniProt Q923Y8)
# experiment: TAAR1 radioligand binding assay ([3H]-rac-2-(1,2,3,4-tetrahydro-1-naphthyl)-2-imidazoline, membranes of stably transfected HEK293 cells)
# assay setup: read-out: Ki (μM) mouse; mouse TAAR1; radioligand [3H]-rac-2-(1,2,3,4-tetrahydro-1-naphthyl)-2-imidazoline at 60 nM; 4° C., 30 minutes
// NB: equality with 0.004 µM counts as FALSE; only Ki strictly below is TRUE

| smiles repr | target under test | class |
| --- | --- | --- |
| CC(C)N(Cc1cnc[nH]1)c1cc(Cl)ccc1F | TAAR1 (Mus musculus (Mouse), UniProt Q923Y8) | FALSE |
| Clc1cccc(N(Cc2cnc[nH]2)CC2CC2)c1 | TAAR1 (Mus musculus (Mouse), UniProt Q923Y8) | TRUE |
| CCN(Cc1cnc[nH]1)c1ccc(Cl)cc1 | TAAR1 (Mus musculus (Mouse), UniProt Q923Y8) | TRUE |
| CC(C)N(Cc1cnc[nH]1)c1ccc(OC(F)(F)F)c(Cl)c1 | TAAR1 (Mus musculus (Mouse), UniProt Q923Y8) | TRUE |
| CCN(Cc1cnc[nH]1)c1cccc(OC)c1 | TAAR1 (Mus musculus (Mouse), UniProt Q923Y8) | FALSE |
| Fc1ccc(NCc2cnc[nH]2)cc1Oc1ccccc1 | TAAR1 (Mus musculus (Mouse), UniProt Q923Y8) | FALSE |
| CC(C)N(Cc1cnc[nH]1)c1cccc(OC(F)(F)C(F)F)c1 | TAAR1 (Mus musculus (Mouse), UniProt Q923Y8) | FALSE |
| CCN(Cc1cnc[nH]1)c1cccc(Cl)c1F | TAAR1 (Mus musculus (Mouse), UniProt Q923Y8) | TRUE |

###

Let's look at some compounds and their measured Ki.
# target under test: TAAR1 (Mus musculus (Mouse))
# experiment: TAAR1 radioligand binding assay ([3H]-rac-2-(1,2,3,4-tetrahydro-1-naphthyl)-2-imidazoline, membranes of stably transfected HEK293 cells)
# assay setup: read-out: Ki (μM) mouse; mouse TAAR1; radioligand [3H]-rac-2-(1,2,3,4-tetrahydro-1-naphthyl)-2-imidazoline at 60 nM; 4° C., 30 minutes
observed property: Ki (µM)

| smiles repr | observed result |
| --- | --- |
| CCN(Cc1cnc[nH]1)c1ccc(F)c(Br)c1 | 0.003 |
| Fc1cc(Cl)cc(NCc2cnc[nH]2)c1 | 0.0026 |
| CCN(Cc1cnc[nH]1)c1ccc(Cl)c(Cl)c1 | 0.001 |
| CC(C)N(Cc1cnc[nH]1)c1cccc(Oc2ccccc2)c1 | 0.0021 |
| CC(C)N(Cc1cnc[nH]1)c1cccc(OC(F)(F)F)c1 | 0.009 |
| CC(C)N(Cc1cnc[nH]1)c1cccc(Oc2ccc(Cl)cc2)c1 | 0.0082 |
| CC(C)N(Cc1cnc[nH]1)c1cc(Cl)cc(Cl)c1 | 0.001 |
| CN(Cc1cnc[nH]1)c1cccc(OCc2ccccc2)c1 | 0.0014 |
| CCN(Cc1cnc[nH]1)c1ccc(F)c(OC)c1 | 0.0048 |
| CCN(Cc1cnc[nH]1)c1ccc(Cl)c(F)c1 | 0.002 |
| CC(C)N(Cc1cnc[nH]1)c1ccc(F)c(Oc2ccccc2)c1 | 0.003 |
| Fc1ccc(NCc2cnc[nH]2)cc1Cl | 0.004 |
| CN(Cc1cnc[nH]1)c1cccc(Br)c1 | 0.002 |
| CCN(Cc1cnc[nH]1)c1cccc(OCc2ccccc2)c1 | 0.001 |
| CC(C)N(Cc1cnc[nH]1)c1cccc(Br)c1 | 0.001 |
| CCN(Cc1cnc[nH]1)c1cccc(Br)c1 | 0.001 |
| CC(C)N(Cc1cnc[nH]1)c1cccc(Cc2ccccc2)c1 | 0.0015 |
| CCN(Cc1cnc[nH]1)c1ccc(Oc2ccc(Cl)cc2)c(Cl)c1 | 0.0039 |
| CCN(Cc1cnc[nH]1)c1ccc(F)c(F)c1 | 0.0014 |
| CN(Cc1cnc[nH]1)c1cc(F)cc(F)c1 | 0.007 |
| CC(C)N(Cc1cnc[nH]1)c1ccc(Br)c(Cl)c1 | 0.001 |
